# GI50 annotations
# Test system: HCC-2998 colon
# Assay name: NCI tumour cell line growth inhibition, 48 h

Smiles repr | GI50
O=C1C(Cl)=C(Nc2ccc3c(c2NC2=C(Cl)C(=O)c4ccccc4C2=O)C(=O)c2ccccc2C3=O)C(=O)c2ccccc21 | 3260 nM

// GI50 lookup, key: `Cc1cc(S(=O)(=O)Nc2nc3ccsc3c(=O)n2Cc2ccccc2)c(S)cc1Cl` 24000 nM

Which value of GI50 has been reported for `CC(C)(C)n1cc(-c2ccnc(NCCCNS(=O)(=O)c3ccc(Cl)cc3)c2)c(-c2cccc(O)c2)n1` in the records? 1760 nM

// query GI50 value for entry `Cc1ccc(C(=O)Nc2ccccc2C(=O)N/N=C(\c2ccccc2)c2ccccn2)cc1` 381 nM

Could you tell me which GI50 is on file for `CCNC(=O)CCCCC(=O)c1c(C)[nH]c(/C=C2\N=C(c3ccc[nH]3)C=C2OC)c1C` ? 2420 nM

Return reported GI50; argument: `CC(=O)[CH-]C(=O)c1ccccc1.CC(=O)[CH-]C(=O)c1ccccc1.CC[O-].O=C1C=C([O-])C(=O)c2ccccc21.[Ti+4]` 23100 nM

====

# System: COLO 205 colon
# Assay name: NCI tumour cell line growth inhibition, 48 h
Test readout: TGI

Below: 5 compounds and their reported TGI.
Compound | TGI
CCCCCC/C=C\CCCCCCCCCc1c(O)c(OC)cc(O)c1CN(C)C | 4.43 µM
COC(=O)Nc1nc2ccc(NS(=O)(=O)c3ccc(F)cc3)cc2[nH]1 | 37.8 µM
CN(C)CCN1C(=O)c2cccc3c(-c4ccc5ncn(C6CCCCC6)c5c4)ccc(c23)C1=O | 4.14 µM
CC1(C)OCC(C2OC(=O)C(OCc3ccccc3)=C2OCc2ccccc2)O1 (stereo not given) | 50.6 µM
O=C(Nn1c2c(sc1=NC1CC1)C(=O)c1ccccc1C2=O)c1cc2ccc1CCc1ccc(cc1)CC2 | 12.7 µM

Dear colleague, I am looking for the recorded TGI of the following compound: `COc1ccc(CCN2CCOCC2)cc1` > 100 µM

What measured TGI goes with `CCc1ccccc1NC(=O)C1=C(C)NC(C)=C(C(=O)Nc2ccccc2CC)C1c1ccc(NC(C)=O)cc1` ? > 100 µM

Bench note: what TGI did `CCOc1ccc(C(c2c(O)c3ccccc3oc2=O)c2c(O)c3ccccc3oc2=O)cc1` show? > 100 µM

Recorded TGI of CCCCCCCCCCOC1C(C(C)OCCCN(C)C)OC2OC3(CCCCC3)OC21 (stereo not given) , please. 14.6 µM

Consider the compound shown here: OC1NC2CC3NC(O)C(O)NC3CC2NC1O (stereo not given) What is its recorded TGI? > 100 µM

I have this compound here, COC(=O)C(Cc1ccccc1)NC(=O)C(CCCN=C(N)N)NC(=O)OCc1ccccc1 (stereo not given) , and I need its recorded TGI. > 100 µM

Can you look up the measured TGI of COC(=O)C1=C2Nc3ccccc3C23CCN2C(O)C4(CC5CC67CCOC6CCN6CCC8(c9cccc(OC)c9N(C4)C58O)C67)C4OCCC4(C1)C23 (stereo not given) for me? > 100 µM

====

# Test system: MALME-3M melanoma
# Assay name: NCI tumour cell line growth inhibition, 48 h; in the data active = GI50 below about 0.43 µM; inactive = the rest
I would appreciate it if you answered using one of these outcomes: true for active, false for inactive

Sample answers from the record:
Compound | Group
CCC[CH2][Sn]1([CH2]CCC)[O]CC([CH2][Sn]([c]2ccccc2)([c]2ccccc2)[c]2ccccc2)[O]1 (stereo not drawn) | false
CCN1CCN(c2nc(C)cc(N(CCCNc3ccnc4cc(Cl)ccc34)Cc3ccco3)n2)CC1 | false
CN(C)CCN1C(=O)c2cccc3c(-c4ccc5ncn(C6CCCCC6)c5c4)ccc(c23)C1=O | false
COc1cccc2cc(N(C)c3nc(C)nc4ccsc34)ccc12 | true
O=C1C(Cl)=C(Nc2ccc3c(c2NC2=C(Cl)C(=O)c4ccccc4C2=O)C(=O)c2ccccc2C3=O)C(=O)c2ccccc21 | false
COc1ccc(Cn2c3c(c4c(O)cccc42)C(=O)c2ccccc2-3)cc1 | false
CO[C@H]1/C=C/C[C@H](C)[C@@H](C)S(=O)(=O)NC(=O)c2ccc3c(c2)N(C[C@@H]2CC[C@H]21)C[C@@]1(CCCc2cc(Cl)ccc21)CO3 | false

Kindly review the next compound as well.
What is the recorded call for this compound in the test? `c1cc(-c2cnn3nc(N4CCOCC4)ccc23)nc(NC2CC2)n1` false
